pIC50: −log10 of the molar value.
The following are reported pIC50 results, target or system Sulfide:quinone oxidoreductase, mitochondrial (Homo sapiens, UniProt Q9Y6N5).

{"columns": ["molecule", "measured.target", "pIC50"],
 "data": [
  ["COc1ccc(-c2cc(-c3ccc(F)cc3)c(C#N)c(OC)n2)cc1", "Sulfide:quinone oxidoreductase, mitochondrial (Homo sapiens, UniProt Q9Y6N5)", 5.87],
  ["CCSc1nc(-c2ccccc2)cc(-c2ccccc2)c1C#N", "Sulfide:quinone oxidoreductase, mitochondrial (Homo sapiens, UniProt Q9Y6N5)", 6.88],
  ["COc1nc(-c2ncccc2C)cc(-c2ccc(F)cc2)c1C#N", "Sulfide:quinone oxidoreductase, mitochondrial (Homo sapiens, UniProt Q9Y6N5)", 8.06],
  ["COc1nc(-c2ccccc2)cc(-c2ccncc2)c1C#N", "Sulfide:quinone oxidoreductase, mitochondrial (Homo sapiens, UniProt Q9Y6N5)", 6.27],
  ["COCCOc1nc(-c2ccccc2)cc(-c2ccc(F)cc2)c1C#N", "Sulfide:quinone oxidoreductase, mitochondrial (Homo sapiens, UniProt Q9Y6N5)", 6.91],
  ["COc1nc(-c2ccncc2)cc(-c2ccc(F)cc2)c1C#N", "Sulfide:quinone oxidoreductase, mitochondrial (Homo sapiens, UniProt Q9Y6N5)", 4.76]
]}

Data origin, for the record: ChEMBL document CHEMBL5029181
